Would you mind telling me the reported glycan array binding signal (z-score) of each entry?
Molecular target: Neu5Ac(a2-6)Gal(b1-4)GlcNAc(b1-2)Man(a1-6)[Man(a1-3)]Man(b1-4)GlcNAc(b1-4)GlcNAc
Assay: glycan array binding signal (z-score within array); higher = stronger binding
Details: glycan notation: IUPAC condensed, linker removed
Only a selection was taken, and the strongest signals are over-represented in it overall.
The answer should be a number; do not append a unit.

Q) Look up and report measured glycan array binding signal (z-score) for this entry: FimA-N3 (Actinomyces oris) (protein) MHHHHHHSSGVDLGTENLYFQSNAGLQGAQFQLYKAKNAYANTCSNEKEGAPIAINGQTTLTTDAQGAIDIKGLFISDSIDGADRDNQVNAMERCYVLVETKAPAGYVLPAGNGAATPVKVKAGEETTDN
A) 0.03

Q) Look up and report measured glycan array binding signal (z-score) for this entry: Wzz (Escherichia coli) (protein) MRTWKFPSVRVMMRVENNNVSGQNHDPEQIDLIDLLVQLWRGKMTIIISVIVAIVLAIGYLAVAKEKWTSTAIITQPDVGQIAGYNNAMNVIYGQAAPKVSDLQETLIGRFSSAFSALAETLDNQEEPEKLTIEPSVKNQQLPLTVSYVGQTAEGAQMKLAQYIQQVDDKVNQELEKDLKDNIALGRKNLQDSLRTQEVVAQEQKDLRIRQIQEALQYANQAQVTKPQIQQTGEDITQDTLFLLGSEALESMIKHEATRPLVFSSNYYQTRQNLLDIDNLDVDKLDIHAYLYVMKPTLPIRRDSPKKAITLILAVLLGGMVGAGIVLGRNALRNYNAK
A) 1.66

Q) Look up and report measured glycan array binding signal (z-score) for this entry: RBMC1 (Vibrio cholerae) (protein) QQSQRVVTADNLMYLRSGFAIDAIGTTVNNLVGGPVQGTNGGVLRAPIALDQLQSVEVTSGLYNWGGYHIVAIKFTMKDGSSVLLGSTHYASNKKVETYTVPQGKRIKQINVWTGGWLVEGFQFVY
A) -0.031

Q) Look up and report measured glycan array binding signal (z-score) for this entry: HBHA-Rv (Mycobacterium tuberculosum), P0A5P6 (protein) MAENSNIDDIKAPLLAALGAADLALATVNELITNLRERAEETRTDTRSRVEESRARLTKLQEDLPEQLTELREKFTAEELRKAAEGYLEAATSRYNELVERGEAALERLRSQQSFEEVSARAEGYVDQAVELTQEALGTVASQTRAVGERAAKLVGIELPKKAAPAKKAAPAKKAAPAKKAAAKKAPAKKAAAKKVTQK
A) -0.302

Q) Look up and report measured glycan array binding signal (z-score) for this entry: 3FTT (Staphylococcus aureus), Q5HCZ5 (protein) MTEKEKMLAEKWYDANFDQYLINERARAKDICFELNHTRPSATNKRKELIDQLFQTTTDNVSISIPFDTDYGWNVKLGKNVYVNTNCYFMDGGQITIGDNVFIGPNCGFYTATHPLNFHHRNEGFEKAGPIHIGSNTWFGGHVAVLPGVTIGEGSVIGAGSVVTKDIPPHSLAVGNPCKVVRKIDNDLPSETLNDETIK
A) -0.226

Q) Look up and report measured glycan array binding signal (z-score) for this entry: AidA (Burkholderia cenocepacia) (protein) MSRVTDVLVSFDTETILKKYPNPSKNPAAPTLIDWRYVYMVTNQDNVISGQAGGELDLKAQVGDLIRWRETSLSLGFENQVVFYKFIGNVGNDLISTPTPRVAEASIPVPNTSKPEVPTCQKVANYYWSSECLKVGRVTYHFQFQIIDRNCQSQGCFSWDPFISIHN
A) 0.17
